# TESTED_SYSTEM: EGFR-L858R/T790M/C797S (Homo sapiens, UniProt P00533, C797S/L858R/T790M)
# Construct: expressed in transfected cells; host or cells: H1975-clone #25 (lentiviral over-expression, endogenous EGFR knocked out)
# Sequence (P00533 25-1210 T790M/C797S/L858R): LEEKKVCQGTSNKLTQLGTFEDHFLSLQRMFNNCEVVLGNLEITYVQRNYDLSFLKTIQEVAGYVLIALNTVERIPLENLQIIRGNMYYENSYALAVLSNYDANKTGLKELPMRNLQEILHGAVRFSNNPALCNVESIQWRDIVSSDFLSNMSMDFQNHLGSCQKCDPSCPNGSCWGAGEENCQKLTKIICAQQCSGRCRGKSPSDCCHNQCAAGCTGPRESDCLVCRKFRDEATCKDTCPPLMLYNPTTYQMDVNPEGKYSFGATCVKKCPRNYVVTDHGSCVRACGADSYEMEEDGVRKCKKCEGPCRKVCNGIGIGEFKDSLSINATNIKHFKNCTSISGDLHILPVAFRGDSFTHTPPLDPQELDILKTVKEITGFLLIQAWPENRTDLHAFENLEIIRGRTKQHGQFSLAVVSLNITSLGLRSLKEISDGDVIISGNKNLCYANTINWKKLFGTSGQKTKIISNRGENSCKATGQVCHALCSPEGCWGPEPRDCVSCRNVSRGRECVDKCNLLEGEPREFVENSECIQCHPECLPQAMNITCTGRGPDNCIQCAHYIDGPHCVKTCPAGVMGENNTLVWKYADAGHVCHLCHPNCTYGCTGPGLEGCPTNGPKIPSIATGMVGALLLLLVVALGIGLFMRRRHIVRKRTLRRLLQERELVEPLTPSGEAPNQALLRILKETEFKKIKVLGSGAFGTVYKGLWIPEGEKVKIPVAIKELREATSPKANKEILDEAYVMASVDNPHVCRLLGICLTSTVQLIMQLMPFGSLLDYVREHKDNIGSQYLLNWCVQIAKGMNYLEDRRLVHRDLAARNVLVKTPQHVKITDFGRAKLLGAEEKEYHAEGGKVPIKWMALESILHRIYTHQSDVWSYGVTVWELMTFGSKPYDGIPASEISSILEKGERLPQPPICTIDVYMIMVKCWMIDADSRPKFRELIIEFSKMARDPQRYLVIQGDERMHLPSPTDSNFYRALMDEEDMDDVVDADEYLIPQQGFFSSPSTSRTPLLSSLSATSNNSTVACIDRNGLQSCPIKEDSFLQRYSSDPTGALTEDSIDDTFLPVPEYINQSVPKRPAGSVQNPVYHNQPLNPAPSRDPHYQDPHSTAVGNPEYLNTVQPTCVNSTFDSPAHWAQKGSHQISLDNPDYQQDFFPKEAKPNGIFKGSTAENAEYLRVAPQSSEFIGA
# ASSAY_INFO: EGFR degradation HTRF assay in H1975-clone #25 cells
# Format: cell-based
# TEST_CONDITIONS: H1975-clone #25 (L858R/T790M/C797S) cells, 16 h treatment, IC50 (DC50), read-out: DC50(nM) H1975 # 25-LTC
ASSAY_METRIC: DC50
Answer format: number, then unit.

// below: answered compounds
CCc1cc(Nc2ncc(Br)c(Nc3ccc4nc(C)c(F)cc4c3P(C)(C)=O)n2)c(OC)cc1N1CCC2(CCN(CCN(C)c3cccc4c3CN(C3CCC(=O)NC3=O)C4=O)CC2)CC1 (stereo not drawn) [Example 34]
2.8 nM
CCc1cc(Nc2ncc(Br)c(Nc3ccc4nc(C)c(F)cc4c3P(C)(C)=O)n2)c(OC)cc1N1CCC(N2CC3(CN(c4cccc5c4n(C)c(=O)n5C4CCC(=O)NC4=O)C3)C2)CC1 (stereo not drawn) [Example 26]
0.7 nM
CCc1cc(Nc2ncc(Br)c(Nc3ccc4nc(C)c(F)cc4c3P(C)(C)=O)n2)c(OC)cc1N1CCC2(CCN(CCCc3cccc4c3n(C)c(=O)n4C3CCC(=O)NC3=O)CC2)CC1 (stereo not drawn) [Example 28]
2.2 nM
CCc1cc(Nc2ncc(Cl)c(Nc3ccc4nc(C)c(F)cc4c3P(C)(C)=O)n2)c(OC)cc1N1CC2(CN(CC3CN(c4cc(F)c([C@H]5CCC(=O)NC5=O)c(F)c4)C3)C2)C1 [Example 78]
5.4 nM
CCc1ccc2c(P(C)(C)=O)c(Nc3nc(Nc4cc(CC)c(N5CCC(N6CCC(N7CCN(c8cc(F)c([C@H]9CCC(=O)NC9=O)c(F)c8)CC7)CC6)CC5)cc4OC)ncc3Br)ccc2n1 (single isomer, unassigned) [Example 11]
0.9 nM
CCOc1cc(N2CCC(N3CCC4(CC3)CN(c3cc(F)c([C@H]5CCC(=O)NC5=O)c(F)c3)C4)CC2)c(CC)cc1Nc1ncc(Br)c(Nc2ccc3nc(CC)ncc3c2P(C)(C)=O)n1 (single isomer, unassigned) [Example 19]
1.9 nM
COc1cc(N2CCC3(CC2)CCN(C2CCN(c4cc(F)c([C@H]5CCC(=O)NC5=O)c(F)c4)CC2)CC3)c(C)cc1Nc1ncc(Br)c(Nc2ccc3nccnc3c2P(C)(C)=O)n1 [Example 36]
4.5 nM
CCc1cc(Nc2ncc(Br)c(Nc3ccc4nc(C)c(F)cc4c3P(C)(C)=O)n2)c(OC)cc1N1CCC2(CCN(C[C@@H]3CCN(c4ccc5c(c4)C(=O)N(C4CCC(=O)NC4=O)C5=O)C3)CC2)CC1 (stereo partly drawn) [Example 49]
7.6 nM

Exam item: Could you tell me which DC50 is on file for CCc1cc(Nc2ncc(Br)c(Nc3ccc4nc(C)c(F)cc4c3P(C)(C)=O)n2)c(OC)cc1N1CCC2(CC1)CCN(C1CC(c3cc(F)c([C@H]4CCC(=O)NC4=O)c(F)c3)C1)CC2 (single isomer, unassigned) [Example 5] ?
Marked response: 3.7 nM

* * *

# TESTED_SYSTEM: EGFR-L858R/T790M/C797S (Homo sapiens, UniProt P00533, C797S/L858R/T790M)
# Construct: expressed in transfected cells; host or cells: H1975-clone #25 (lentiviral over-expression, endogenous EGFR knocked out)
# ASSAY_INFO: EGFR degradation HTRF assay in H1975-clone #25 cells
# Type: cell-based
# TEST_CONDITIONS: H1975-clone #25 (L858R/T790M/C797S) cells, 16 h treatment, IC50 (DC50), read-out: DC50(nM) H1975 # 25-LTC
# Experimental: H1975-clone #28(Del19/T790M/C797S) and H1975-clone #25(L858R/T790M/C797S). EGFR-Del19/T790M/C797S and EGFR-L858R/T790M/C797S were stably expressed in H1975 cell lines by lentivirus-mediated over-expression, respectively. The EGFR over-expressed cells then underwent knockout, in which the EGFR targeting sgRNA was designed to only target the endogenous EGFR copies and preserve the exogenous EGFR copies. […] The inhibition (degradation) percentage of the compound was calculated by the following equation: […]
ASSAY_METRIC: DC50 (nM)
Reply with just the number (in nM).

// below: answered compounds
CCc1ccc2c(P(C)(C)=O)c(Nc3nc(Nc4cc(CC)c(N5CCC(N6CCC(N7CC(c8cccc9c8n(C)c(=O)n9C8CCC(=O)NC8=O)C7)CC6)CC5)cc4OC)ncc3Br)ccc2n1 (centres unmarked) [Example 63]
2.7
CCc1ccc2c(P(C)(C)=O)c(Nc3nc(Nc4cc(CC)c(N5CCC(N6CCN(C7CCN(c8cc(F)c([C@H]9CCC(=O)NC9=O)c(F)c8)CC7)CC6)CC5)cc4OC)ncc3Br)ccc2n1 (single isomer, unassigned) [Example 10]
4.9
CCc1ccc2c(P(C)(C)=O)c(Nc3nc(Nc4cc(CC)c(N5CCC(N6CC7(CN(c8cc(F)c([C@H]9CCC(=O)NC9=O)c(F)c8)C7)C6)CC5)cc4OC)ncc3Br)ccc2n1 (single isomer, unassigned) [Example 27]
2.4

Exam item: Could you tell me which DC50 is on file for CCc1cc(Nc2ncc(Br)c(Nc3ccc4nc(C)c(F)cc4c3P(C)(C)=O)n2)c(OC)cc1N1CCC2(CC1)CCN(C1CCN(c3ccc4c(c3)C(=O)N(C3CCC(=O)NC3=O)C4=O)CC1)CC2 (centres unmarked) [Example 92] ?
Marked response: 8.2

Exam item: Could you tell me which DC50 is on file for CCc1ccc2c(P(C)(C)=O)c(Nc3nc(Nc4cc(CC)c(N5CCC(N6CC(N7CCC(c8cc(F)c([C@H]9CCC(=O)NC9=O)c(F)c8)CC7)C6)CC5)cc4OC)ncc3Br)ccc2n1 [Example 14] ?
Marked response: 2.1

* * *

Reported Dmax (%) H1975 # 28 DTC values are given for each entry in this list.
# System: EGFR-Del19/T790M/C797S
# ASSAY_INFO: EGFR degradation HTRF assay in H1975-clone #28 cells
# Format: cell-based
# TEST_CONDITIONS: H1975-clone #28 (Del19/T790M/C797S) cells, 16 h treatment, maximum percentage of inhibition (degradation)
Answer format: number, then unit.

// below: answered compounds
CCOc1cc(N2CCC(N3CC4(CCN(c5cccc6c5n(C)c(=O)n6C5CCC(=O)NC5=O)CC4)C3)CC2)c(CC)cc1Nc1ncc(Cl)c(Nc2ccc3nc(C)c(F)cc3c2P(C)(C)=O)n1 (centres unmarked)
77%
CCc1ncc2c(P(C)(C)=O)c(Nc3nc(Nc4cc(C)c(N5CCC6(CCN(CCc7cc(F)c([C@H]8CCC(=O)NC8=O)c(F)c7)CC6)CC5)cc4OC)ncc3Cl)ccc2n1
93%
CCc1ccc2c(P(C)(C)=O)c(Nc3nc(Nc4cc(CC)c(N5CCC(N6CCN(C7CN(c8cccc9c8n(C)c(=O)n9C8CCC(=O)NC8=O)C7)CC6)CC5)cc4OC)ncc3Br)ccc2n1 (centres unmarked)
77%
CCc1cc(Nc2ncc(Br)c(Nc3ccc4nc(C)c(F)cc4c3P(C)(C)=O)n2)c(OC)cc1N1CCC(N2CC3(CN(c4cc(F)c([C@H]5CCC(=O)NC5=O)c(F)c4)C3)C2)CC1
95%

We next turn to a different compound, shown below.
Exam item: Could you tell me which Dmax (%) H1975 # 28 DTC is on file for CCc1ncc2c(P(C)(C)=O)c(Nc3nc(Nc4cc(CC)c(N5CCC(N6CCC7(CCN(c8cc(F)c([C@H]9CCC(=O)NC9=O)c(F)c8)CC7)CC6)CC5)cc4OC)ncc3Br)ccc2n1 (single isomer, unassigned) ?
Marked response: 87%

* * *

# TESTED_SYSTEM: EGFR-L858R/T790M/C797S (Homo sapiens, UniProt P00533, C797S/L858R/T790M)
# Construct: expressed in transfected cells; host or cells: H1975-clone #25 (lentiviral over-expression, endogenous EGFR knocked out)
# ASSAY_INFO: EGFR degradation HTRF assay in H1975-clone #25 cells
# Type: cell-based
# TEST_CONDITIONS: NCI-H1975, H1975-clone #25 (L858R/T790M/C797S) cells, 16 h treatment, maximum percentage of inhibition (degradation), read-out: Dmax (%) H1975 # 25-LTC
ASSAY_METRIC: Dmax (%)
Reply with just the number (in %).

Exam item: Could you tell me which Dmax is on file for COc1cc(N2CCC3(CC2)CCN(C2CCN(c4cc(F)c([C@H]5CCC(=O)NC5=O)c(F)c4)CC2)CC3)c(C)cc1Nc1ncc(Br)c(Nc2ccc3nc(C)c(F)cc3c2P(C)(C)=O)n1 ?
Marked response: 95

Exam item: Could you tell me which Dmax is on file for CCc1ccc2c(P(C)(C)=O)c(Nc3nc(Nc4cc(CC)c(N5CCC(N6CCC(N7CCN(c8cc(F)c([C@H]9CCC(=O)NC9=O)c(F)c8)CC7)CC6)CC5)cc4OC)ncc3Br)ccc2n1 (single isomer, unassigned) ?
Marked response: 94

Cited source for all entries: patent US20240368203A1
